Reported melting point values for a set of compounds

Consider the following illustrative entries.
INSERT INTO results (compound, assay_readout, data_value) VALUES
  ('CCn1c(=O)n(CCC(C)C(C)=O)c(=O)c2c1ncn2CCOC (stereo not given)', 'melting point', '83 to 84 °C'),
  ('O=S(=O)(c1cc(Cl)[nH]c1-c1ccc(Cl)cc1)C(F)(F)F', 'melting point', '109 to 112 °C'),
  ('Nc1ccc(C2=NNC(=O)CC2)cc1[N+](=O)[O-]', 'melting point', '> 330 °C'),
  ('COC(=O)c1ccc(-c2nccc3ccn(S(=O)(=O)c4ccc(OC)cc4)c23)cc1', 'melting point', '144 to 146 °C'),
  ('COc1ccc(C(Cc2ccncc2)c2ccc(CO)cc2)cc1OC1CCCC1 (stereo not given)', 'melting point', '179 to 182 °C'),
  ('Cc1cc(=O)[nH]c(=O)n1Cc1ccccc1', 'melting point', '228 to 230 °C');

According to the records, this compound Cc1nc(O)c(-c2ccc(S(C)(=O)=O)cc2)s1 displays melting point of 216 to 226 °C

According to the records, this compound Cn1cc(Br)cc(Nc2ccc(N3CCN(CCF)CC3)cn2)c1=O displays melting point of 141 to 143 °C

According to the records, this compound Nc1ccccc1C(=O)c1ccc(OCc2ccccc2)cc1 displays melting point of 99 to 101 °C

According to the records, this compound CCOC(=O)/C(N)=C/C(=O)/C=C/c1ccc(Cl)cc1F displays melting point of 102 to 103 °C
